# MEASUREMENT PROTOCOL: Clearance in CB17 mouse at 9 mg/kg, iv by LC/MS/MS method
# Type: ADME, organism-based
# Set-up: dose 9 mg/kg, route intravenous
# APPLIED CONDITIONS: in vivo
ATTRIBUTE MEASURED: clearance
Kindly write the number and append the unit.

*Q* Looking for the measured clearance of O=C1Nc2ccccc2-c2ccnc3[nH]cc(c23)C1c1ccc(O)cc1 (stereo unspecified) , can you help?
*A* 12.1 mL/min/kg

* * *

# SYSTEM UNDER TEST: Mast/stem cell growth factor receptor Kit (Homo sapiens, UniProt P10721)
# Sequence (P10721 whole entry): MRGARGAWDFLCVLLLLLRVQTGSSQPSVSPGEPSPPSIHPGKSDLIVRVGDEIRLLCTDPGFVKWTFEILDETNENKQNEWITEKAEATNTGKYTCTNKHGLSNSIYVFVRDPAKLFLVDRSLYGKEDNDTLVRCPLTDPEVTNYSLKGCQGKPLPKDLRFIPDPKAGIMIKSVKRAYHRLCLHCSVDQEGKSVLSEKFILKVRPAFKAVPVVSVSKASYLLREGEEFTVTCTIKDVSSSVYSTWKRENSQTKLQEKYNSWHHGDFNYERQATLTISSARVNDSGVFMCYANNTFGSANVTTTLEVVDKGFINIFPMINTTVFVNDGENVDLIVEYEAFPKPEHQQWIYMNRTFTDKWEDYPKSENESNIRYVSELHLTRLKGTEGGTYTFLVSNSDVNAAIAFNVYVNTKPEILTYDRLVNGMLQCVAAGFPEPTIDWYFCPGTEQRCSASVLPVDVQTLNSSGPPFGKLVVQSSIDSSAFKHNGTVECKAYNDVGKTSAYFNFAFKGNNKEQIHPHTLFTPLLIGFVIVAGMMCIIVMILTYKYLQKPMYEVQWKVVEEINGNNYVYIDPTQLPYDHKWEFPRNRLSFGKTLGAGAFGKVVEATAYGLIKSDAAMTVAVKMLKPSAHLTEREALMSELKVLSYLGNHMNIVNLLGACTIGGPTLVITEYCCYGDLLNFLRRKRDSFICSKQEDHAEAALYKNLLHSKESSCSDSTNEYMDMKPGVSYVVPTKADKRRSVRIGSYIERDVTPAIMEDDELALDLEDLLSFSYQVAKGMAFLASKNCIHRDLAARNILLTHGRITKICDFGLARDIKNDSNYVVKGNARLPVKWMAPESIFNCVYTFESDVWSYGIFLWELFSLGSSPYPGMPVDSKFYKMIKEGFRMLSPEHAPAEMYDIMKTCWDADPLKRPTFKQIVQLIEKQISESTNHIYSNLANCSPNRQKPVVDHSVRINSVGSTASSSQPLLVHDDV
ATTRIBUTE MEASURED: pKi
// returns pKi (minus log10 of molar concentration), number only

*Q* Looking for the measured pKi of O=C1Nc2ccccc2-c2ccnc3[nH]cc(c23)C1c1ccc(O)cc1 (stereo unspecified) , can you help?
*A* 6.72

All figures here come from ChEMBL document CHEMBL1154754.
